Listed here: items and their measured Kp uu at 8 h.
Assay: Unbound brain-to-plasma concentration ratio in mouse measured after 8 hrs
Type: ADME, cell-free
Settings: read-out: K(p,uu,brain)
property: Kp uu at 8 h

smiles str	assay result
CC(C)n1nnnc1[C@H](c1ccccc1F)N1CCN(c2cccc(Cl)c2)CC1	0.55
CC(C)n1nnnc1[C@@H](c1ccccc1F)N1CCN(c2cccc(Cl)c2)CC1	0.77

---

Assay: Stability in rat assessed as intrinsic clearance
Type: ADME, cell-based, Hepatocyte
Settings: hepatocytes

smiles str	unit abbreviation	clearance
CC(C)n1nnnc1[C@H](c1ccccc1F)N1CCN(c2cccc(Cl)c2)CC1	mL/min/kg	332
CC(C)n1nnnc1[C@@H](c1ccccc1F)N1CCN(c2cccc(Cl)c2)CC1	mL/min/kg	652

The reported numbers originate from ChEMBL document CHEMBL5356999.
